- TEST_SYSTEM: (NVDP)3(NANP)2 (Plasmodium falciparum)
- PROCEDURE_SUMMARY: BLI, target on sensor
Items are presented alongside their recorded Kd.
Write the answer as a number in nM, unit excluded.

Asked: Dear colleague, I am looking for the recorded Kd of the following binder: AB-007052 (antibody, V domains shown) VH: QMQLVESGGGVVQPGRSLRLSCTASGFTFSTYAMHWVRQSPGQGLQWVAVISYHSNNKYYEDSVRGRFTISRDNSKNTLYLQMNSLRAEDTAVYYCARDGYSSSFFDFWGQGTLVTVSS VL: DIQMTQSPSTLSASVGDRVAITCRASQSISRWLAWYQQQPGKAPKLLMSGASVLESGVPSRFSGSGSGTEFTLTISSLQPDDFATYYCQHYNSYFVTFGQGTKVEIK
Given back: 6.28

Asked: Dear colleague, I am looking for the recorded Kd of the following binder: AB-007068 (antibody, V domains shown) VH: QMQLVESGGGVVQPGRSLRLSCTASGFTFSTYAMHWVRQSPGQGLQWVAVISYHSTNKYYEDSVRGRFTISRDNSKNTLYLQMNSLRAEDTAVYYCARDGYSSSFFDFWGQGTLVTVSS VL: DIQMTQSPSTLSASVGDRVAITCRASQSISRWLAWYQQQPGKAPKLLMSLASVLESGVPSRFSGSGSGTEFTLTISSLQPDDFATYYCQHYNSYFVTFGQGTKVEIK
Given back: 17.1

Hey, just so you know, these numbers are from patent US20220195023A1.
